Attribution: the nanobody polyreactivity screen of Harvey et al. (2022)

test: yeast display, Sf9 membrane polyspecificity reagent, FACS + sequencing; frameworks hold sequencing errors
measuredMetric: polyreactivity (PSR sort gate)

Worked examples, 6 sequences total:
QVQLVESGGGLVQAGGSLRLSCAASGIIFLDYVMGWYRQAPGKERELVAAINSGGSTYYADSVKGRFTISRDNAKNTVYLQMNSLKPEDTAVYYCAADDYYKFDYWGQGTQVSVSS
low polyreactivity
QVQLVESGGGLVQAAGSLRLSCAASGSIFIQYAMGWYRQAPGKERELVAAITRRGGRTYYADSVKGRFTISRDNAKNTVYLQLNSLKPEDTAVYYCNAVPIGQWAYDYWGQGTQVTVSS
high polyreactivity
QVQLVESGGGLVQAGGSLRLSCAASGSTFQSNAMGWYRQAPGKERELVAAITVSAGSTYYADSVKGRFTISRDNAKNTVYLQMNSLKPEDTAVYFCAANRYVYPSYRFDYWGQGTQVTVSS
low polyreactivity
QVQLVESGGGLVQAGGSLRLSCAASGRTFKGYTMGWYRQAPGKERELVAVITWSGDRTYYADSVKGRFTISRDNAKNTVYLQMNSLKPEDTAVYYCAARGYSLRTRGDYWGQGTQVTVSS
high polyreactivity
QVQLVESGGGLVQAGGSLRLSCAASGRIFYRYAMGWYRQAPGKERELVAAISGRGGSTYYADSVKGRFTISRDNAKNTVYLQMNSLKPEDTAVYYCNALPVYRSLAYEVDYWGQGTQVTVSS
high polyreactivity
QVQLVESGGGLVQAGGSLRLSCAASGYTFYPYDIGWYRQAPGKERELVAAISWSGGGTYYADSVKGRFTISRDNAKNTVYLQMNSLKPEDTAVYYCAADLKALNQSYPGYEYWGQGTQVTVSS
low polyreactivity

// fetch polyreactivity (PSR sort gate) given entry QVQLVESGGGLVQAGGSLRLSCAASGSILWHNAMGCYRQAPGKEREFVAAISARGTRTYYADSVKGRFTISRDNAKITVYLQMNSLKPEDTAVDYCAARYWDDRARAEDYWGQGTQVTVSS
high polyreactivity

// fetch polyreactivity (PSR sort gate) given entry QVQLVESGGGLVQAGGSLRLSCAASGRIFAVYVMGWYRQAPGKERELVAAISQSGGRTYYADSVKGRFTISRDNAKNTVYLQMNSLITEDTAVYYCNTVTSRATNFSGLGYWGQGTQVTVSS
high polyreactivity

// fetch polyreactivity (PSR sort gate) given entry QVQLVESGGGLVQAGGSLRLSCAASGYIFGAYAMGWYRQAPGKERELVAGITASGDSTYYADSVKGRFTISRDNAKNTVYLQMNSLKPEDTAVYYCNAQPDIGLYDRQWKEPYEYWGQGTQVTVSS
low polyreactivity

// fetch polyreactivity (PSR sort gate) given entry QVHLVESGGGLVQAGGSLRLSCAASGRTFRLYAMAWSRQAPGKERELVARISRGGSTYYADSVKGRFTISRDNAKNTVYLLMNSLKREDTAVYYCAAEGWGLSHRYDYWGQGTQVTVSS
high polyreactivity

// fetch polyreactivity (PSR sort gate) given entry QVQLVESGGGLVQAGGSLRLSCAASGGIFGSYAMGWYRQAPGKERELVAAISGGSTYYADSVKGRFTISRDNAKNTVYLQMTSLKPEDTAVYYCAAGWSVWYQDFDYWGQGTQVTVSS
high polyreactivity

* * *

test: yeast display, Sf9 membrane polyspecificity reagent, FACS + sequencing; frameworks hold sequencing errors
measuredMetric: polyreactivity (PSR sort gate)

QVQLVESGGGLVQAGGSLRLSCAASGFTFFSYTMGWYRQAPGKERELVAAISKRGSRTYYADSVKGRFTISRDNAKNTVYLQRNSLKPEDTAVYYCAADCGREVVLRREDYWGQGTQVTVSS
high polyreactivity
QVQLVESGGGLVQAGGSLRLSCAASGLNFSYYAMGWYRQAPGKERELVAAINSGGSTYYADSVKGRFTISRDNAKNTVYLQMNRLKQEDTAVYYCAAHLWYHGHLFDYWGQGTQVTVSS
high polyreactivity
QVQLVESGGGLVQAGGSLRLSCAASGSTFVSNAMGWYRQAPGKERELVAAITTGGSTYYADSVKGRFTISRDNAKNTVYLQMNSLKPEDTAVYYCAADSVLNWFWGYEYWGQGTQVTVSS
low polyreactivity
QVQLGESGGGLVQAGGSLRLSCAASGRIFSKNAMGWYRQAPGKERELVASIRQSGSNTYADSVKGRFTISRVNAKNTVYVQMNSLKPEDTAVYNCAASYFPLNSGRKVGYWGQGTQVTVSS
low polyreactivity
QVQHVESGGGLVQAGGSLRLSCAASGRTFRSYAMGWYRQAPGKEREFVATITRRGGSTYYADSVKGRFTISRDNAKNTVYLQMNSLKPEDTAVYYCNAVVSSQEYDYWGQGTQVTVSS
high polyreactivity

// fetch polyreactivity (PSR sort gate) given entry QVQLVESGGGLVQAGGSLRLSCAASGYTFYQYAMGWYRQAPGKESELVADISRSGVSTYYADSVKGRFTISRDNAKNTVYLQMNSLKPEDTAVYYCAARRPFYRQLDYWGQGTQVTVSS
high polyreactivity

// fetch polyreactivity (PSR sort gate) given entry QVQLVESGGGLVQAGGSLRLSCAASGRTFHYYAMVWYRQAPWKERELVAGITAGGSTYYADSVKGRFTISRDNAKNTVYLLMNSLKPEDNSGYYCAADRSYYGYGYWGKGTQVTVSS
low polyreactivity

// fetch polyreactivity (PSR sort gate) given entry QVQLVESGGGLVQAGGRLRLSCAASGRTFGRYAMGWYRQAPGKERELVAAITGGVITTYADSVKGRFTISRDNAKNTVYLQMNSLKPEDTAVYYCAARYNVFPSPHYYYWGQGTQVTVSS
low polyreactivity

// fetch polyreactivity (PSR sort gate) given entry QVQLVESGGGLVQAGGSLRLSCAASGFIFDYYAMGWYRQAPGKERELVASISGDDGRTYYADSVKGRFTISRDNAKNTVYLQMNSLKPEDTAVYYCNAEWGVLNYDYWGQGTQVTVSS
low polyreactivity

// fetch polyreactivity (PSR sort gate) given entry QVQLVESGGGLVQAGGSLRLSCAASGFIFGYYAMGWYRQAPGKERELVAAISWSGGSTYYADSVKGRFTISRDKAKNTVYLQMNSLKPEDTAVYYCATASPSTRYGRLGDYWGQGTQVTVSS
low polyreactivity

// fetch polyreactivity (PSR sort gate) given entry QVQLVESGGGLVQAGGSLRLSCAASGRTIVYYAMGWYRQAPGKERDFVAAISRSGGRTSYADSVKGRFTISRDNAKNTVYLQMNSLKPEDTAVYYCAAEKRTQPTSREYYWGQGTQVTVSS
high polyreactivity

* * *

test: yeast display, Sf9 membrane polyspecificity reagent, FACS + sequencing; frameworks hold sequencing errors
measuredMetric: polyreactivity (PSR sort gate)

QVQIVESGGGLVQAGATLRLSCDASGITIEGYAMGWYRQAPGKERELVAAIRSSGTSTYYADSVKGRFTITRDFAKNTVYLQMNSLKPEDTAVYYCNRARSSSRYDYWGQGTQVTVSS
low polyreactivity
QVQLVESGGGLVQAGGSLRLSCAASGFTFRQNAKGWYRQAPGKERELVAVITKSAGSTYYADSVKGRFTISRDNAKNTVYLQMNSLKPEDTAVFYCNKRQRFVSSFRRSQGIGWEDDYWGQGTQVTVSS
low polyreactivity

* * *

test: yeast display, Sf9 membrane polyspecificity reagent, FACS + sequencing; frameworks hold sequencing errors
measuredMetric: polyreactivity (PSR sort gate)

QVHLVESGGGIVQAGGSLPLTCAAYGSIFNRYAMGWYRPAPGKERQLVAAISLTSGSTYYADYVKGRFTISRDNEKITVYLQMNSLKPEDTAVYYCATRRKVGPTQVGFYYRGGVDYWGQGTQVTVSS
high polyreactivity
QVQLVESGGGLVQAGGSLRLSCAAYGSTLSPYTMGWYRQAPGKERELVAAITQSGGSTYYADSVKGRFTISRDKAKYTVYLQMNSLKPEDTAVYYCNRDYNADYDWGQGTQVTVSS
high polyreactivity

* * *

test: yeast display, Sf9 membrane polyspecificity reagent, FACS + sequencing; frameworks hold sequencing errors
measuredMetric: polyreactivity (PSR sort gate)

Worked examples, 4 sequences total:
QVQLVESGGGLVQAGGSLRLSCAASGRIFGVYAMGWYRQAPGKERELGAALSEGGGSTNYADSVKGRFTISRDNAKNTVYLQMNSLKPEDTAVDYCAATSRTGVRRYYSWGQGTQVTVSS
low polyreactivity
QVQLVESGGGLVQAGGSLRLSCAASGSLFSGYTMAWYSQAPGKERELVAAITRSGGRTYYADSVKGRFTISRDNAKNTVYLQMKSLKPEVTAVNYCAAVDRRGANYNYWGQGTQVTVSS
high polyreactivity
QVQLVESGGGLVQAGGSLRLSCAASGFTFEYYAMGWYRQAPWKERELVATITWNGGSTYYADSVKGRFTISRDNAKNTVYFQMNSLKPEDTAVYYCAADEQAYYVRRFDYWGQGTQVTVSS
low polyreactivity
QVQLVESGGGLVQAGCSLRLSCAASGRTFGRNAMGWNRQAPGKERELVAAITSGGSTSYADSVKGRFTISRDNAKNTVYLQMNSLKPEDTAVYYCAADVRPYYTRRVWIQFDYWGQGTQVTVSS
high polyreactivity

// fetch polyreactivity (PSR sort gate) given entry QVQLVESGGGLVQAGGSLRISCAAYGRIFGYYALGWYRQAPGKERELVAAITSGGSTNYADSVKGRFTISRDNAKNTVYLQMNSLKPEDTAVYYCAARSWYFSWEMYYWGQGTQVTVSS
high polyreactivity

// fetch polyreactivity (PSR sort gate) given entry QVQLVESGGGLVQAGGSLRLSCAASGFIIYGYVMGWYRQAPGKERELVAAINSSSGRTYYADSVKGRFTISRDNAKNTVYLQMNSLKPEDTAVYYCAAYYYGSYDGTPYDYWGQGTQVTVSS
low polyreactivity

// fetch polyreactivity (PSR sort gate) given entry QVQLVESGGGLVQAGGSLRLSCAASGRIFQIYAMGWYRQAPGKERELVATISSGTRTYYADSVKGRFTISRDNAKNTVYLQMNSLKPEDTAVYYCNTGLVYGYDYWGQGTQVTVSS
high polyreactivity

// fetch polyreactivity (PSR sort gate) given entry QVQPVESGAGLVQAGGSLRLSCAASGSIFWSYAMGLYRQAPGKERELVAAITTSDGSTYYADSVKWRFTISRDNAKNTVYLQMNSLKPEDTAVYYCAADTYYVSYGYYYWGQGTQVTVSS
low polyreactivity

// fetch polyreactivity (PSR sort gate) given entry QVQLVESGGGLVQAGGSLRLSCAASGITFYGNAMGWYRQAPGTERELVAAITGGGGTNYADSVKGRFTISRDNAKNTVYLQMNSLKPEDTAVYYCNRDYFVWFQRGQYKRGSSWYDYWGQGTQVTVSS
low polyreactivity

// fetch polyreactivity (PSR sort gate) given entry QVQLVESGGGLVQAGGSLRLSCAASGRTFLYYAMGWYRQAPGKERELVAAISSGADSTYYADSVKGRFTISRDNAKNTVYLQMNSLKPEDTAVYYCAAGGSHDGVWDDYWGQGTQVTVSS
high polyreactivity

// fetch polyreactivity (PSR sort gate) given entry QVQLVESGGGLVQAGGSLRLSCAASGRTFGHYAMGWYRQAPGKERELVAAITWTGGRTYYADSVKGRFTISRDNAKNTVYLQMNSLNPEVTAVYYCNTDRSFYYPAEYDYDYWGQGTQVTVSS
low polyreactivity
